subject_of_test: C-X-C chemokine receptor type 3 (Mus musculus, UniProt O88410)
Sequence (O88410 whole entry): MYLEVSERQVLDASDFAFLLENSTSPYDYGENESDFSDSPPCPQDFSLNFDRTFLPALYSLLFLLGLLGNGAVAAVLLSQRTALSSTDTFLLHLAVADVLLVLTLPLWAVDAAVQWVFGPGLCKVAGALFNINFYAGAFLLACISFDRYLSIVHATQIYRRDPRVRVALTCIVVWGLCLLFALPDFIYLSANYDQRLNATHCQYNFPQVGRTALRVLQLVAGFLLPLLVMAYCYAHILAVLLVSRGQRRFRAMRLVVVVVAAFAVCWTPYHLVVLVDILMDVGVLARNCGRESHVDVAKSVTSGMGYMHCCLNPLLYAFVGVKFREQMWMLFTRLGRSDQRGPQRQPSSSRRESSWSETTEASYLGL
procedure_text: Antagonist activity at CXCR3 in DBA/1 mouse whole blood assessed as receptor internalization incubated for 30 mins in presence of CXCL10 by flow cytometric analysis
Format: tissue-based
quantity: pIC50
Keep it numeric: pIC50 is minus log10 of the concentration in mol/L.

Notebook: "Cc1ncn(CC(=O)N2CCN(c3sc(C(F)(F)F)nc3-c3cnc(C(F)(F)F)nc3)C[C@H]2CCO)n1" , pIC50 read as 6.79

---

Overview of reported microsomal CLint at 1 µM across a group of compounds:
procedure_text: Metabolic stability in dog liver microsomes assessed as intrinsic clearance at 1 uM and measured upto 15 mins in presence of NADPH regenerating system by LC-MS/MS analysis
Type: ADME, Canis lupus familiaris, Microsome
condition_info: read-out: CLH

For orientation, consider the following solved cases.
CCc1ncn(CC(=O)N2CCN(c3sc(C(F)(F)F)nc3-c3cnc(C(F)(F)F)nc3)C[C@H]2CCO)n1: < 10 µL/min/mg
Cc1ccn(CC(=O)N2CCN(c3sc(C(F)(F)F)nc3-c3cnc(C(F)(F)F)nc3)C[C@@H]2CO)n1: 16 µL/min/mg

Now examine the next entry.
Notebook: "Cc1ncn(CC(=O)N2CCN(c3sc(C(F)(F)F)nc3-c3cnc(C(F)(F)F)nc3)C[C@H]2CCO)n1" , microsomal CLint at 1 µM read as < 10 µL/min/mg

---

procedure_text: Oral bioavailability in Cynomolgus monkey at 1.25 mg/kg
Format: ADME, organism-based, Macaca fascicularis
condition_info: in vivo
quantity: bioavailability (%)
Reply numerically in %, unit not repeated.

Notebook: "Cc1ncn(CC(=O)N2CCN(c3sc(C(F)(F)F)nc3-c3cnc(C(F)(F)F)nc3)C[C@H]2CCO)n1" , bioavailability read as 92

---

subject_of_test: hERG (KCNH2) (Homo sapiens, UniProt Q12809)
Sequence (Q12809 whole entry): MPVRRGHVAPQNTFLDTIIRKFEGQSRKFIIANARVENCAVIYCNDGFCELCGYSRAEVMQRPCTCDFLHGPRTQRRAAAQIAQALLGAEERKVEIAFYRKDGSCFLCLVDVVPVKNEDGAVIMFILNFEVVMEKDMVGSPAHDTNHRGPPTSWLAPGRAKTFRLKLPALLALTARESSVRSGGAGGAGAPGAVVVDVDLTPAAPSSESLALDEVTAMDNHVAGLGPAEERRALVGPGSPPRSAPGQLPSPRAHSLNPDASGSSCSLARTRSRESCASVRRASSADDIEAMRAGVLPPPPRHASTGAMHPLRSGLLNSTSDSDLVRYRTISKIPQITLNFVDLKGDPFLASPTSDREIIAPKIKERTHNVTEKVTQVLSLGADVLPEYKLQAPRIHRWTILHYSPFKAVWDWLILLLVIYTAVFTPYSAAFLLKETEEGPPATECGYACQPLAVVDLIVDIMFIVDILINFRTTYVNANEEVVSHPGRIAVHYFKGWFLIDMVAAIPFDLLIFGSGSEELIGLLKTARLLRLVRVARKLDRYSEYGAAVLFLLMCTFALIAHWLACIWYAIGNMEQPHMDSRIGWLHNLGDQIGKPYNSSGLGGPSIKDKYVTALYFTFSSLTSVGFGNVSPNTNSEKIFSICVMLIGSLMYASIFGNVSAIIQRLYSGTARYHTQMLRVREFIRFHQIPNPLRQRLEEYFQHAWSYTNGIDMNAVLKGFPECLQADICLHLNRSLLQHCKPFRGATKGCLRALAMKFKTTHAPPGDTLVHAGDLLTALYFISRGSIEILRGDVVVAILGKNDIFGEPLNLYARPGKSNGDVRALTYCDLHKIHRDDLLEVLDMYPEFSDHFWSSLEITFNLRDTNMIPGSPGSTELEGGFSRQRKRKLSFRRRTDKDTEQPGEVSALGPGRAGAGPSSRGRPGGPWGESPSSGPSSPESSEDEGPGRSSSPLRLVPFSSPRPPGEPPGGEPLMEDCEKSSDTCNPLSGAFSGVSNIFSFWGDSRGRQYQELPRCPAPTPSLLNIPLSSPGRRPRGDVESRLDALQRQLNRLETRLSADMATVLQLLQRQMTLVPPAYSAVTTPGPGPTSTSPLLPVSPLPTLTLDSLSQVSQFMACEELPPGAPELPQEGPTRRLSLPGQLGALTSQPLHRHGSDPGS
procedure_text: Inhibition of human ERG K+ currents by GLP assay
Type: toxicity
condition_info: human
quantity: IC20
Please provide the amount together with its unit, number first.

Measured on hERG (KCNH2) (Homo sapiens, UniProt Q12809), "Cc1ncn(CC(=O)N2CCN(c3sc(C(F)(F)F)nc3-c3cnc(C(F)(F)F)nc3)C[C@H]2CCO)n1" has a documented IC20 of 3 µg/mL

---

procedure_text: Cmax in Wistar rat at 3 mg/kg,iv or 3 mg/kg, po
Format: ADME, organism-based
Set-up: dose 3 mg/kg, route iv
condition_info: in vivo
quantity: Cmax (ng/mL)
Reply numerically in ng/mL, unit not repeated.

Notebook: "Cc1ncn(CC(=O)N2CCN(c3sc(C(F)(F)F)nc3-c3cnc(C(F)(F)F)nc3)C[C@H]2CCO)n1" , Cmax read as 910
